All figures here come from patent EP1099690A1.

Molecular target: human chymase (Homo sapiens)
Sequence (P23946 22-247): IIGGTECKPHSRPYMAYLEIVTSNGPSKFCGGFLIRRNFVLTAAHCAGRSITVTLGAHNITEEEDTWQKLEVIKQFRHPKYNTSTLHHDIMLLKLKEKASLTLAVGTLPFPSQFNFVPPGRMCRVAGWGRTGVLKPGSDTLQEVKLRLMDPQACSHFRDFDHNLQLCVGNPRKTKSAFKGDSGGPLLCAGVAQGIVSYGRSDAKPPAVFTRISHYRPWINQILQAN
Entries whose IC50 is below 1 nM take class 1; entries at or above 1 nM take class 0.

Recorded results for 3 compounds are shown here.
compound	measured-target	class-label
CCOc1ccccc1CC1C(=O)N(C(=O)NC(c2ccccc2)c2ccccc2)C1Oc1ccc(C(=O)O)cc1 (centres unmarked) [Compound I-144]	human chymase (Homo sapiens)	class 0
COc1ccccc1C[C@@H]1C(=O)N(C(=O)N[C@H](C)c2ccccc2)[C@H]1Oc1ccc(C(=O)N2CCN(c3ncccn3)CC2)cc1 [Compound I-107]	human chymase (Homo sapiens)	class 1
C[C@@H](NC(=O)N1C(=O)[C@@H](Cc2ccccc2)[C@@H]1Oc1ccc(C(=O)N2CCC[C@@H]2C)cc1)c1ccccc1 [Compound I-41]	human chymase (Homo sapiens)	class 0

Task: Bench note: check whether C[C@@H](NC(=O)N1C(=O)[C@@H](Cc2ccccc2)[C@H]1Oc1ccc(C(=O)NNc2ccccc2)cc1)c1ccccc1 [Compound I-73] shows IC50 below 1 nM
Output: class 1

Task: What about C[C@@H](NC(=O)N1C(=O)[C@@H](Cc2ccccc2)[C@H]1Oc1ccc(C(=O)N2CCOCC2)cc1)c1ccccc1 [Compound I-67] ?
Output: class 1

Task: What about CCCC(NC(=O)N1C(=O)[C@@H](Cc2ccccc2OC)[C@@H]1Oc1ccc(C(=O)N2CCC(N3CCCCC3)CC2)cc1)c1ccc2c(c1)OCO2 (some centres unmarked) [Compound I-121] ?
Output: class 1

Task: What about CC(NC(=O)N1C(=O)C(Cc2ccccc2)C1Oc1ccc(C(=O)N2CCN(C)CC2)cc1)c1ccccc1 (centres unmarked) [Compound I-39] ?
Output: class 1
